These data points were gathered from the supplement of paper PMC8498969.

# Test system: HEK293
# Assay remarks: cytotoxicity IC50 (ATP content, uninfected cells); higher = less cytotoxic
# Test conditions: infection: none
The entries below are paired with their reported cytotoxicity IC50.
// return numeric value only (unit: µM, not printed)

Use the examples below as a reference point.
| Structure string | cytotoxicity IC50, µM |
| --- | --- |
| O=[N+]([O-])c1ccc(O)c2ncccc12 | 4.7 |
| Cn1c(=O)n(-c2ccc(C(C)(C)C#N)cc2)c2c3cc(-c4cnc5ccccc5c4)ccc3ncc21 | 0.53 |
| C[C@H]1O[C@@H](O[C@H]2[C@@H](O)C[C@H](O[C@H]3[C@@H](O)C[C@H](O[C@H]4CC[C@@]5(C)[C@H](CC[C@@H]6[C@@H]5C[C@@H](O)[C@]5(C)[C@@H](C7=CC(=O)OC7)CC[C@]65O)C4)O[C@@H]3C)O[C@@H]2C)C[C@H](O)[C@@H]1O | 60 |
| CO/C1=C\C(C)=C\[C@@H](C)[C@@H](O)[C@@H](C)C/C(C)=C/C=C/[C@H](OC)[C@@H]([C@@H](C)[C@@H](O)[C@H](C)[C@@]2(O)C[C@@H](O)[C@H](C)[C@@H](C(C)C)O2)OC1=O | 80 |
| O=C(NC1CCNCC1)c1n[nH]cc1NC(=O)c1c(Cl)cccc1Cl | 22 |
| CN(C)C(=S)SSC(=S)N(C)C | 0.18 |
| O=C1/C(=C/c2ccccc2)C[C@@]2(O)[C@H]3Cc4ccc(O)c5c4[C@@]2(CCN3CC2CC2)[C@H]1O5 | 2.4 |
| CCCCc1ccc2[nH]c(NC(=O)OC)nc2c1 | 3 |

// sample Cc1ccc(C(=O)N(CCCN)[C@@H](c2nc3cc(Cl)ccc3c(=O)n2Cc2ccccc2)C(C)C)cc1 , its cytotoxicity IC50 was 37

// sample O=C(Nc1ccc([N+](=O)[O-])cc1Cl)c1cc(Cl)ccc1O , its cytotoxicity IC50 was 3.3

// sample COc1cccc2c(NCc3ccccc3)nc(-n3c(N)nc4ccccc43)nc12 , its cytotoxicity IC50 was 30

// sample O=C(O)c1ccc2cc(-c3ccc(O)c(C45CC6CC(CC(C6)C4)C5)c3)ccc2c1 , its cytotoxicity IC50 was 45

// sample O=C1NC(=O)/C(=C/c2ccc3nccc(-c4ccncc4)c3c2)S1 , its cytotoxicity IC50 was 1.4

// sample CSc1cccc(Nc2ncc3cc(-c4c(Cl)cccc4Cl)c(=O)n(C)c3n2)c1 , its cytotoxicity IC50 was 6.6

// sample S=C(SSC(=S)N1CCCCC1)N1CCCCC1 , its cytotoxicity IC50 was 0.097

// sample O=C1C(SCCO)=C(SCCO)C(=O)c2ccccc21 , its cytotoxicity IC50 was 5.3
